# Protocol Text: xn = mol fraction of the nth substance listed
# Assay Conditions: 323.15 K; 100 kPa; x2 = 0.5
Endpoint: viscosity (mPa·s)
The reply should be a number in mPa·s, with the unit left off.

compound="CC(CC(C)(C)C)CC(C)(C)CC(C)(C)C (centres undefined) + CCCCCCCCCCCCC" assay_value=1.43

## Task Entry under review: C1CC[C@H]2CCCC[C@H]2C1 + CC1CCCCC1 . Reported viscosity?
## Result 0.986

## Task Continue with CC(CC(C)(C)C)CC(C)(C)CC(C)(C)C (centres undefined) + CC1CCCCC1
## Result 1.136

## Task Try this compound next: CC(CC(C)(C)C)CC(C)(C)CC(C)(C)C (centres undefined) + C1CC[C@H]2CCCC[C@H]2C1
## Result 1.897

====

# Assay Conditions: 303.15 K; 101 kPa
Think of 3 mPa·s as a floor: if viscosity stands on it or above, it is 1; beneath it, -1.

// known answers, use as guide
compound="CCCC(C)O (stereo unspecified)" category_label=-1
compound=C1CCNCC1 category_label=-1
compound=CC[N+](CC)(CC)CC.[OH-] category_label=1

## Task Is viscosity at least 3 mPa·s? Consider C1CC[C@H]2CCCC[C@H]2C1
## Result -1

## Task Same read-out for CCCCCCCBr ?
## Result -1

## Task Moving on to CCCC[N+](C)(CCCC)CCCC.N#C[N-]C#N
## Result 1

====

# Protocol Text: xn = mol fraction of the nth substance listed
# Assay Conditions: 303.15 K; 100 kPa; x2 = 0.75
# reported viscosity; entries follow
Supply the numeric figure in mPa·s, leaving out any unit text.

Completed entries (count: 3):
molecule="C1CC[C@H]2CCCC[C@H]2C1 + CC1CCCCC1" assay_value=0.935
molecule="CC(CC(C)(C)C)CC(C)(C)CC(C)(C)C (centres undefined) + C1CC[C@H]2CCCC[C@H]2C1" assay_value=2.736
molecule="CC(CC(C)(C)C)CC(C)(C)CC(C)(C)C (centres undefined) + CC1CCCCC1" assay_value=1.047

Pending molecule:
## Task Fill blank: measured viscosity of the molecule CC(CC(C)(C)C)CC(C)(C)CC(C)(C)C (centres undefined) + CCCCCCCCCCCCC is ____.
## Result 1.76

====

# Protocol Text: xn = mol fraction of the nth substance listed
# Assay Conditions: 303.15 K; 100 kPa; x2 = 0.25
Below is a list of entries, each paired with its recorded viscosity value.
Answer with a number only, understood to be in mPa·s.

molecule="CC(CC(C)(C)C)CC(C)(C)CC(C)(C)C (centres undefined) + CCCCCCCCCCCCC" unit_text=mPa·s assay_value=2.39
molecule="C1CC[C@H]2CCCC[C@H]2C1 + CC1CCCCC1" unit_text=mPa·s assay_value=1.912

## Task Return reported viscosity; argument: CC(CC(C)(C)C)CC(C)(C)CC(C)(C)C (centres undefined) + CC1CCCCC1
## Result 2.272

## Task Would you kindly repeat that for CC(CC(C)(C)C)CC(C)(C)CC(C)(C)C (centres undefined) + C1CC[C@H]2CCCC[C@H]2C1 ?
## Result 2.871

====

# Protocol Text: xn = mol fraction of the nth substance listed
# Assay Conditions: 313.15 K; 100 kPa; x2 = 0.5
Endpoint: viscosity (mPa·s)
Use mPa·s as the unit, but write only the number.

Here's what some known entries look like.
compound="CC(CC(C)(C)C)CC(C)(C)CC(C)(C)C (centres undefined) + C1CC[C@H]2CCCC[C@H]2C1" assay_value=2.279
compound="CC(CC(C)(C)C)CC(C)(C)CC(C)(C)C (centres undefined) + CC1CCCCC1" assay_value=1.32
compound="C1CC[C@H]2CCCC[C@H]2C1 + CC1CCCCC1" assay_value=1.123

# context switch: different compound, same viscosity
## Task Report viscosity for CC(CC(C)(C)C)CC(C)(C)CC(C)(C)C (centres undefined) + CCCCCCCCCCCCC please.
## Result 1.71

====

# Assay Conditions: 313.15 K; 101 kPa
Endpoint: log10(viscosity) (log10 of the value in mPa·s)
Use the decimal logarithm of viscosity (mPa·s).

molecule="CCCC(C)O (centres undefined)" assay_value=0.29
molecule=CCOC(=O)C(=O)OCC assay_value=0.13
molecule=CCCCCCCBr assay_value=-0.03
molecule=CCC[N+]1(C)CCCC1.O=S(=O)([N-]S(=O)(=O)C(F)(F)F)C(F)(F)F assay_value=1.54
molecule=CCCCNCCCC assay_value=-0.17

Now consider a different molecule.
## Task Would you kindly share the measured log10(viscosity) for CCCC[N+](C)(CCCC)CCCC.N#C[N-]C#N ?
## Result 2.10

====

Recorded measurements of viscosity, one per entry
# Protocol Text: xn = mol fraction of the nth substance listed
# Assay Conditions: 303.15 K; 100 kPa; x2 = 0.125
Your answer is read as mPa·s, so omit the unit and give the number.

compound="CC(CC(C)(C)C)CC(C)(C)CC(C)(C)C (centres undefined) + CC1CCCCC1" unit_text=mPa·s assay_value=2.553
compound="CC(CC(C)(C)C)CC(C)(C)CC(C)(C)C (centres undefined) + C1CC[C@H]2CCCC[C@H]2C1" unit_text=mPa·s assay_value=2.919
compound="C1CC[C@H]2CCCC[C@H]2C1 + CC1CCCCC1" unit_text=mPa·s assay_value=2.241

Okay, now this compound:
## Task Which viscosity value belongs to CC(CC(C)(C)C)CC(C)(C)CC(C)(C)C (centres undefined) + CCCCCCCCCCCCC ?
## Result 2.65

====

A collection of compounds and their measured viscosity
# Protocol Text: xn = mol fraction of the nth substance listed
# Assay Conditions: 323.15 K; 100 kPa; x2 = 0.75
Give just the number in mPa·s; leave the unit off.

Worked examples, 3 compounds total:
compound="CC(CC(C)(C)C)CC(C)(C)CC(C)(C)C (centres undefined) + CC1CCCCC1" unit_text=mPa·s assay_value=0.802
compound="C1CC[C@H]2CCCC[C@H]2C1 + CC1CCCCC1" unit_text=mPa·s assay_value=0.701
compound="CC(CC(C)(C)C)CC(C)(C)CC(C)(C)C (centres undefined) + CCCCCCCCCCCCC" unit_text=mPa·s assay_value=1.25

## Task What value of viscosity has been reported for the following compound? CC(CC(C)(C)C)CC(C)(C)CC(C)(C)C (centres undefined) + C1CC[C@H]2CCCC[C@H]2C1
## Result 1.876

====

# Assay Conditions: 323.15 K; 101 kPa
Endpoint: viscosity (mPa·s)
Report the value in mPa·s with no unit label.

compound=CCCC(=O)O assay_value=0.9885
compound=CCOC(=O)C(=O)OCC assay_value=1.154
compound=CCCCCCCBr assay_value=0.82
compound="CCCC(C)O (centres undefined)" assay_value=1.479
compound=CCCCNCCCC assay_value=0.5859

## Task Recorded viscosity for CCN(C=O)CC , please?
## Result 0.86

## Task Same again, this time with CCCCBr
## Result 0.476

## Task Can you handle C1CCNCC1 next?
## Result 0.757

## Task Could you do the same for CCCC[N+](C)(CCCC)CCCC.N#C[N-]C#N , please?
## Result 74.87

====

Reported viscosity values follow for various compounds
# Protocol Text: xn = mol fraction of the nth substance listed
# Assay Conditions: 313.15 K; 100 kPa; x2 = 0.375
Answer format: numeric, mPa·s implied, no suffix.

compound="CC(CC(C)(C)C)CC(C)(C)CC(C)(C)C (centres undefined) + CC1CCCCC1" unit_text=mPa·s assay_value=1.574
compound="CC(CC(C)(C)C)CC(C)(C)CC(C)(C)C (centres undefined) + CCCCCCCCCCCCC" unit_text=mPa·s assay_value=1.79

## Task Consider the compound shown here: CC(CC(C)(C)C)CC(C)(C)CC(C)(C)C (centres undefined) + C1CC[C@H]2CCCC[C@H]2C1 What is its recorded viscosity?
## Result 2.303

## Task Item: C1CC[C@H]2CCCC[C@H]2C1 + CC1CCCCC1
## Result 1.326

====

# Assay Conditions: 303.15 K; 100 kPa
Endpoint: viscosity (mPa·s)
Report as a plain number; the unit mPa·s is understood.

## Task Entry under review: C1CC[C@H]2CCCC[C@H]2C1 . Reported viscosity?
## Result 2.704

## Task Let us now turn to CC(CC(C)(C)C)CC(C)(C)CC(C)(C)C (stereo unspecified)
## Result 2.984

## Task What do you have for CCCCCCn1cc[n+](C)c1C.O=S(=O)([N-]S(=O)(=O)C(F)(F)F)C(F)(F)F ?
## Result 99

## Task // next record CC[N+](CC)(CC)CC.[OH-]
## Result 4.72

## Task Next up: CCCCNCCCC
## Result 0.75

## Task Likewise for COCCO ?
## Result 1.457

The values you see were collected from the CheMixHub viscosity set.
